Recorded measurements of IC50, one per entry
biological target: Delta-type opioid receptor (Rattus norvegicus, UniProt P33533); assay: Displacement of [3H]- DPDPE from delta opioid receptor in rat brain membrane; assay type: cell membranes
Sequence (P33533 whole entry): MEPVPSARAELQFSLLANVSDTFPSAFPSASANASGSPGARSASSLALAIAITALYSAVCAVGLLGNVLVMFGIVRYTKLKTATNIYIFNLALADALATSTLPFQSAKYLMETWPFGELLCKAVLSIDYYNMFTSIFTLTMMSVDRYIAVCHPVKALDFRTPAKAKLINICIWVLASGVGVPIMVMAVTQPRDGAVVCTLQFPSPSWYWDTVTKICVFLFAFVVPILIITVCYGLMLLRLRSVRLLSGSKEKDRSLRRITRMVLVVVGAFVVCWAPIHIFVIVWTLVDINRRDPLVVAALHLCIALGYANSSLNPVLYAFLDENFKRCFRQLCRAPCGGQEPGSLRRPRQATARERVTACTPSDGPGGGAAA
PARAMETER_MEASURED: IC50 (nM)

> print(dat)
       substance  value.observed
1  H-YMFFLMD-NH2              11
2  H-YMFYLMD-NH2             5.9
3   H-YMFHLMN-OH              16
4  H-YMFHLMN-NH2              18
5   H-YMFHLMD-OH             2.4

* * *

molecular target: Mu-type opioid receptor (Cavia porcellus); assay: Inhibition of opioid receptor mu in guinea pig ileum (GPI); assay type: tissue-based
Sequence (P97266 whole entry): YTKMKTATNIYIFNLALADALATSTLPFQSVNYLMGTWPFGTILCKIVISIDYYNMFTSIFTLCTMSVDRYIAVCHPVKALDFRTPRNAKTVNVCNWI
pIC50: −log10 of the molar value.
Given measured pIC50, output Met if it is greater than or equal to 6 and Not met if not.

> print(dat)
       substance  label.value
1   H-YAFDVV-NH2          Met
2   H-YMFHLMD-OH      Not met
3  H-YMFFLMD-NH2          Met
4  H-YMFHLMN-NH2          Met
5   H-YMFHLMN-OH          Met
6  H-YMFYLMD-NH2          Met
